Reference source: patent US20050281828A1

Biological target: T1, recombinant human L-SIGN (L-SIGNFc fusion protein) (human, UniProt Q9H2X3 78-399)
T1 construct: also called DC-SIGNR; human DC-SIGNR; not shown: Fc part of the fusion
T1 sequence (looked up): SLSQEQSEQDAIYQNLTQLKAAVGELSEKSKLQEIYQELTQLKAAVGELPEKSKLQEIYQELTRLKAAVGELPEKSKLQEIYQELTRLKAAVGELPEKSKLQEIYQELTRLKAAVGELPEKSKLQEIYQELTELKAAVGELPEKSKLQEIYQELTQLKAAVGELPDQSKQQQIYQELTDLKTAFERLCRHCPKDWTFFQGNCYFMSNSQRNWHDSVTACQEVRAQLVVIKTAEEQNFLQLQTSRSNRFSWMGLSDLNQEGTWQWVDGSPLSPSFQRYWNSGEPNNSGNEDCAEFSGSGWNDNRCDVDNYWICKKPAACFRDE
Assay: ELISA, recombinant L-SIGN

{"binder": "IgG1k clone C7 (phage-Fab screening) (Fab, V domains shown) VH: EVQLQQSGPELEKPGASVKISCKASGYSFTGYNMNWVKQSSGKSLEWIGNFDPYYGVITYNQKFKGKATLTVDKSSSTAYMQLKSLTSEDSAVYYCARTATALYTMDYWGQGTSVTVSS VL: EIVLTQSPAIMSASPGEKVTMTCRASSSVSSSYLHWYQQKSGASPKLWIYSTSNLASGVPARFSGSGSGTSYSLTISSVEAEDAATYYCQQYSGYPLTFGSGTKLEIK", "OD405 [OD405]": 3.5}
{"binder": "IgG1k clone B7 (Fab, V domains shown, phage-Fab screening) VH: EVQLQQSGPELEKPGASVKISCKASGYSFTGYNMNWVKQSSGKSLEWIGNFDPYYGVITYNQKFKGKATLTVDKSSSTAYMQLKSLTSEDSAVYYCARTATALYTMDYWGQGTSVTVSS VL: EIVLTQSPAIMSASPGEKVTMTCRASSSVSSSYLHWYQQKSGASPKLWIYSTSNLASGVPARFSGSGSGTSYSLTISSVEAEDAATYYCQQYSGYPLTFGSGTKLEIK", "OD405 [OD405]": 2.7}
{"binder": "IgG1k clone A10 (Fab, V domains shown, phage-Fab screening) VH: EVQLQQSGPELEKPGASVKISCKASGYSFTGYNMNWVKQSNGKSLEWIGNIDPYYGDITYNQKFKGKATLTVDKSSSTAYMQLKSLTSEDSAVYYCARTATALYTMDYWGQGTSVTVSS VL: EIVLTQSPAIMSASLGERVTMTCTASSSVSSSYLHWYQQKPGSSPKLWIYSTSNLASGVPARFSGSGSGTSYSLTISSMEAEDAATYYCHQYHRSPQTFGGGTKLEIK", "OD405 [OD405]": 2.9}
